Where these numbers come from: ChEMBL document CHEMBL1961873

Recorded inhibition, one value per entry.
# tested system: Angiopoietin-1 receptor (Homo sapiens)
# cond: at 0.1 µM
# Description: GSK_PKIS: TIE2 mean inhibition at 0.1 uM [Nanosyn]
I only need the number, in %, no unit after it.

# annotated cases, reported inhibition shown
substance_smiles=N#Cc1ccc(Oc2nccc(-c3c(-c4ccc(F)cc4)ncn3C3CCNCC3)n2)cc1 tested_system="Angiopoietin-1 receptor (Homo sapiens)" endpoint_value=3.13
substance_smiles=COc1cc2ncn(-c3cc(OCc4cccs4)c(C(N)=O)s3)c2cc1OC tested_system="Angiopoietin-1 receptor (Homo sapiens)" endpoint_value=4.44
substance_smiles=Cc1ccc(C(=O)NC(C)C)cc1-c1ccc(C(=O)NCC2CC2)cc1 tested_system="Angiopoietin-1 receptor (Homo sapiens)" endpoint_value=-0.76
substance_smiles=COc1ccc(-c2ccc3c(NC(=O)C4CC4)n[nH]c3n2)cc1 tested_system="Angiopoietin-1 receptor (Homo sapiens)" endpoint_value=2.75
substance_smiles=COc1cccc(/C=N/Nc2ncnc3c2cnn3-c2cccc(OC)c2)c1 tested_system="Angiopoietin-1 receptor (Homo sapiens)" endpoint_value=5.3
substance_smiles=COc1cc(C)c(N(C)C(=O)CN(C)C)cc1Nc1nc(Nc2cccc(F)c2C(N)=O)c2cc[nH]c2n1 tested_system="Angiopoietin-1 receptor (Homo sapiens)" endpoint_value=0.26

Which inhibition value belongs to Fc1ccc(-c2ncn(C3CCNCC3)c2-c2ccnc(Oc3ccc(F)c(F)c3)n2)cc1 ?
0.38

Which inhibition value belongs to NS(=O)(=O)c1ccc(N/N=C2\C(=O)Nc3ccc(-c4cnco4)cc32)cc1 ?
3.92

Which inhibition value belongs to NC(=O)c1cc(-c2ccc(F)cc2)cc(-c2ccncc2)c1N ?
4.39
